Value source: the supplement of paper PMC10567573

B1: RHOBTB3 (parent)
chain: DSCCPAGIFQAMCLLICAEMYQVS

variants of: B1; assay: protein stability index of a GFP-peptide fusion (GPS, HEK-293T) (PSI 1-6); higher = more stable; conditions: c terminus: a fixed tail appended;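 further: lentivirally expressed fusions sorted by FACS into six bins by GFP to DsRed ratio, PSI derived from sequencing read proportions per bin multiplied by bin number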
# binarize protein stability index: threshold 3 inclusive, high side Yes, low side No

>>> assigned_label("DSCCPAGIFQAMCLLICAEMYQVK [S24K]")
"Yes"
>>> assigned_label("DSCCPAGIFQAMCLLICLEMYQVS [A18L]")
"No"
>>> assigned_label("DSCCPAGIFQAMCLLGCAEMYQVS [I16G]")
"Yes"
>>> assigned_label("DSCCPAGIDQAMCLLICAEMYQVS [F9D]")
"No"
>>> assigned_label("DSCCPAGIFQAMCLLICAEMYQVM [S24M]")
"No"
>>> assigned_label("DSCCHAGIFQAMCLLICAEMYQVS [P5H]")
"Yes"
>>> assigned_label("DSCCPAGIFQAMCLNICAEMYQVS [L15N]")
"No"
>>> assigned_label("DSCCPAGIFQAMCLLICAEMYQVT [S24T]")
"Yes"
>>> assigned_label("DSSCPAGIFQAMCLLICAEMYQVS [C3S]")
"Yes"
